All figures here come from the RNAGym collection of RNA variant scans (doi:10.7554/elife.80360).

B1: HDV Ribozyme (parent)
chain: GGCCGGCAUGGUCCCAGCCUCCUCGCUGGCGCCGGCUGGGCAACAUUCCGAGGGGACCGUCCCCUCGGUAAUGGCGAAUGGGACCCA

Variants of: B1
assayMethodText: self-cleavage, relative activity (ratio to wild type); higher = more cleavage; co-transcriptional
quantityKind: self-cleavage

sequenceRecord	number
GGCCGGCAUGGUCCCAGCCUCCUCGCUGGCGCCGGCUGGGCAACAAUGCGAGGGGACCGUCCCCUCGGUAAUGGCGAAUGGGACCCA [U46A C48G]	0.802
GGCCGGCAUGGUCCCAGCCUCCUCGCUGGCGCCGGCUGGGCAACAUCCCGAGGGGACCGUCCCCUCGGUAAUGGGGAAUGGGACCCA [U47C C75G]	0
GGUCGGCAUGGUCCCAGCCUCCUCGCUGGCGCCGGCUGGGCAACAUUCGGAGGGGACCGUCCCCUCGGUAAUGGCGAAUGGGACCCA [C3U C49G]	0.68
GGCCGGCAUGGUCCCAACCUCCUCGCUGGCGCCGGCUGGGCAACAUUCCGAGGGGACCGUCCCCUCGGUAAUGGCGAAUUGGACCCA [G17A G80U]	0.198
GGCCGGCAUGGUCCCAGCCUCCUCGAUGGCGCCGGCUCGGCAACAUUCCGAGGGGACCGUCCCCUCGGUAAUGGCGAAUGGGACCCA [C26A G38C]	0.122
GGCCGGCAUGGUGCCAGCCUCCUCGCUGGCGCCAGCUGGGCAACAUUCCGAGGGGACCGUCCCCUCGGUAAUGGCGAAUGGGACCCA [C13G G34A]	0.0536
GGCCGGCAUGGUCCCAGCCUCUUCGCUGGCGCCGGCUGGGCAACAUUCCGAGGGGACCGUCCCCUCGGUAAUGGUGAAUGGGACCCA [C22U C75U]	0.214
GGCCGGCAUGGUCCCAGCCUCCUCGCUGGCGCCGGCUGCGCAACAUUCCGAGGGGACCGUCCCCUCGGUAAUGGGGAAUGGGACCCA [G39C C75G]	0.0831
GGCCGGCAUGGUCCCAGCCUCCUCGCUGGCGCCGGCUGGGCAACAUACCAAGGGGACCGUCCCCUCGGUAAUGGCGAAUGGGACCCA [U47A G50A]	0.876
GGCCGGCAUGGUCUCAGCCUCCUCGCUGGCGCCGGCUGGGCAACAUUCCAAGGGGACCGUCCCCUCGGUAAUGGCGAAUGGGACCCA [C14U G50A]	1.01
GGCCGGCAUGGUCCCAGCCUCCUCGCUGGCGCCGGCUGGGCAACAUUCCGAGGGGACCGUCCCCUCGGUAAUGGCGAAAGGGACCAA [U79A C86A]	0.688
GGCCGGCAUGGUCCCAGCCUCCUCGCUGGCGCCGGCUGGGUAACAUUCCGAGGGGACCGUCCCCUCGGAAAUGGCGAAUGGGACCCA [C41U U69A]	1.08
GGCCGGCAUGGUCCCAGGCUCCCCGCUGGCGCCGGCUGGGCAACAUUCCGAGGGGACCGUCCCCUCGGUAAUGGCGAAUGGGACCCA [C18G U23C]	0.227
GGCCGGCAUGGUCCCAGCCUCCUCGCUGCCGUCGGCUGGGCAACAUUCCGAGGGGACCGUCCCCUCGGUAAUGGCGAAUGGGACCCA [G29C C32U]	0.119
GGCCGGCAUGGUCCCAGCCUCCUCGCUGGCGCCGGCUGGGCAACAUUCCGAGGGGACCGUCCCCACGGUAGUGGCGAAUGGGACCCA [U65A A71G]	0.831
GGCCGCCAUGGUCCCAGCCUCCUCGCUGGCGCCGGCUGGGCAACAUUCCGAGGGGACCGUCCCCUCGGUAAUGGCGAAUGAGACCCA [G6C G81A]	0.0811
GGCAGGCAUGGUCCCAGCCUCCUCGCUGGCGCCGGCUGGGCAACAUUCCGAGGGGACCGUCCCCUCGGGAAUGGCGAAUGGGACCCA [C4A U69G]	0.285
GGCCGGCAUGGUCCCAGCCUCCUCGCUGGCGCCGGCUGGGCAACUUUCCGAGGGGACCGUCCCCUCGGUAAUGGCGAAUUGGACCCA [A45U G80U]	0.153
GGCCGGCAUGGUCCCAGCCUCCUCGCUGGGGCCGGCUGUGCAACAUUCCGAGGGGACCGUCCCCUCGGUAAUGGCGAAUGGGACCCA [C30G G39U]	0.0692
GGCCGGCAUUGUCCCAGCCUCCUCGCUGGCGCCGACUGGGCAACAUUCCGAGGGGACCGUCCCCUCGGUAAUGGCGAAUGGGACCCA [G10U G35A]	0.604
GGCCGGAAUGGUCCCAGGCUCCUCGCUGGCGCCGGCUGGGCAACAUUCCGAGGGGACCGUCCCCUCGGUAAUGGCGAAUGGGACCCA [C7A C18G]	0
GGCCGGCAUGGUCCCUGUCUCCUCGCUGGCGCCGGCUGGGCAACAUUCCGAGGGGACCGUCCCCUCGGUAAUGGCGAAUGGGACCCA [A16U C18U]	0.427
GGCCGGCAUGGUCCCAGCCUCCUCGCUGGCGCCGGCUCGGCAACAUUCCGGGGGGACCGUCCCCUCGGUAAUGGCGAAUGGGACCCA [G38C A51G]	0.309
GGCCGGCAUGGUCCCAGCCUCCUCGAUGGCGCCGGCUGGGCAACAUUCCGAGGGGACCGUCCCCUGGGUAAUGGCGAAUGGGACCCA [C26A C66G]	1.15
GGCCGGCAUGGUCCCAGCUUCCUCGCUGGCGCCGGCUGGGCAACAUUCCGAGGGGACCGUCCCCUCGGUAAUGGCGAAUGGGACCCC [C19U A87C]	0.235
GGCCGGCAUGGUCCCAGCCUCCUCGCUUGCGCCGGCUGGGCAACAUUCCGAGGGGACCGUCCCCUAGGUAAUGGCGAAUGGGACCCA [G28U C66A]	0.197
GGCCGGCAUGGUCCCAGCCUCCUCGCUGGCGCCGGCUGGGCAACAUUCUGAGGGGACCGUCCCCUCGGUAAUGUCGAAUGGGACCCA [C49U G74U]	0.507
GGCCGGCAUGGUCCCAGCCUCCUCGCUGGCGCCGGCUGGGCAACACUCCGAGGGGACCGUCCCCUCGGUAAUGGCGAAGGGGACCCA [U46C U79G]	0.554
GCCCGGCAUGGUCCCAGCCUCCUCGCUGGCGCCGGCUGGGCAACAUUCCGAGGGGACCGUCCCCUCGGUAAUGGCGAAUUGGACCCA [G2C G80U]	0.0392
GGCCGGCAUGGUCCCAGCCUCCUCGCUGGCGCCGGCUGGGCCACAUUCCGAGGGGACCGUCCCCUUGGUAAUGGCGAAUGGGACCCA [A42C C66U]	0.489
GGCCGGCGUGGUCCCAGCCUCCUCGCUGGCGCGGGCUGGGCAACAUUCCGAGGGGACCGUCCCCUCGGUAAUGGCGAAUGGGACCCA [A8G C33G]	0.0755
GGCCGGCAUGGUCCCAGCCUCCUCGCUGGCGCCGGCGGGGCAACAUUCCGAGGGGACCGUCCCCUGGGUAAUGGCGAAUGGGACCCA [U37G C66G]	0.135
GGCCGGCAUGGUCCCAGCCUCCUCGCUGGCGCCGGCUGGGCAACAUUCCGAGGGGACCGUCCCCUCGGUAAUGGCUAAUGGGACGCA [G76U C85G]	1.16
GGCCGGCAUGGUCCCAGCCUCGUCGCUGGCGCCGGCCGGGCAACAUUCCGAGGGGACCGUCCCCUCGGUAAUGGCGAAUGGGACCCA [C22G U37C]	0.136
GGCCGGCAUGGUCCCAGCCUCCUCGCUGGCGCCGGCUGGGCAGCAUUCCGAGGGGACCGUCCCCUCGGUAAUGGCGAAUGGGAUCCA [A43G C84U]	0.426
GGCCGGCAUGGUCCCAGCCUCUUCGCUGGCGCCGGCUAGGCAACAUUCCGAGGGGACCGUCCCCUCGGUAAUGGCGAAUGGGACCCA [C22U G38A]	0.931
GCCCGGCAUGGUCCCAGCCUCCUCGCUGGCGCCGGCUGGGCAAGAUUCCGAGGGGACCGUCCCCUCGGUAAUGGCGAAUGGGACCCA [G2C C44G]	0.0656
GGCCGGCAUGGUCCAAGCCUCCUCGCUGGCGCCGGCUGGGCAACAUUCCGAGGGGACCGUCCCCUCGGUAAUGGCGAGUGGGACCCA [C15A A78G]	0.447
GGCCGGCAUGGUCCCAGCCUCCUCGCUGGCGCCGGCUGGGCAACUUUCCGAGGGGACCGACCCCUCGGUAAUGGCGAAUGGGACCCA [A45U U60A]	0.723
GGCCGGCAUGGUCCCAGCCUUCUCGCUGGCGCCGGCUGGGCAACAUUCCGAGGGGACCGUCCCCUCGGUAAUGGCGAAUGGAACCCA [C21U G82A]	0.0906
GGGCGGCAUGGUCCCAGCCUCCUCGCUGGCGCCGGCUGGGCAACAUUCCGAGGAGACCGUCCCCUCGGUAAUGGCGAAUGGGACCCA [C3G G54A]	0.683
GGCCGGCAUGGUCCCAGCCUCCUCGCUGGCGCCGGCUGGGCAACAUUCCGAGGGGACCGUCCCCGUGGUAAUGGCGAAUGGGACCCA [U65G C66U]	0.702
GGCCGGCAUGGUCCCCGCCUCCUCGCUGGCGCCGGCUGGGCAACAUUCCGAGGGGACCGUCCCCUCGGUAAUGUCGAAUGGGACCCA [A16C G74U]	0.415
GGCCGGCAUUGUCCCAGCCUUCUCGCUGGCGCCGGCUGGGCAACAUUCCGAGGGGACCGUCCCCUCGGUAAUGGCGAAUGGGACCCA [G10U C21U]	0.0532
GGCCGGCAUGGUCCCAGCCUCCUCGCUGGCGCCGGCUGGACAACAUUCCGAGCGGACCGUCCCCUCGGUAAUGGCGAAUGGGACCCA [G40A G53C]	1.01
GGCCGGCAUGGUCACAGCCUCCUCGCUGGCGCCGGCUGGGCAACAUUCCGAGGGGAGCGUCCCCUCGGUAAUGGCGAAUGGGACCCA [C14A C57G]	0.72
